The measurements presented in this section are drawn from ChEMBL document CHEMBL4811238.

# TESTED_ON: Carbonic anhydrase 2 (Homo sapiens)
pKi: −log10 of the molar value.
QUANTITY_MEASURED: pKi

Hey, Carbonic anhydrase 2 (Homo sapiens) data for `CC(=O)c1ccc(NC(=O)CS(=O)(=O)c2ccc(C)cc2)cc1` : pKi came out at < 4.00
